- measured_on: α-7 nicotinic acetylcholine receptor channel expressed in HEK 293 cells (Rattus norvegicus, UniProt Q05941)
- Construct: expressed in transfected cells
- Sequence (Q05941 23-502): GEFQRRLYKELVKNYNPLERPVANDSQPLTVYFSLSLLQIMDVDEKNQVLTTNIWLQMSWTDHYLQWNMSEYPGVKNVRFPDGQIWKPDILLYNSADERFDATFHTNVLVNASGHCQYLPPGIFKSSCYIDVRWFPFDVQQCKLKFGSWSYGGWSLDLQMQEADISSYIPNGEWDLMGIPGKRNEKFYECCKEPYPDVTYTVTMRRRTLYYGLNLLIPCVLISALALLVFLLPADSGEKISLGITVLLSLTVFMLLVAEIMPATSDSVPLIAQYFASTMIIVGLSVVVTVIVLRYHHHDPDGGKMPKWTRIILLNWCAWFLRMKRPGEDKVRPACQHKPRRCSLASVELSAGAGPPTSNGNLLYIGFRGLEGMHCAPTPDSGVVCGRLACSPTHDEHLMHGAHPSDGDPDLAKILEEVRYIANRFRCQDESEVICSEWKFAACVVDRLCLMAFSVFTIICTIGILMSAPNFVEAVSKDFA
- test_protocol: Ca2+-sensitive fluorescence-based FLIPR assay, α7 nicotinic ACh receptor channel function (agonist)
- Type: cell-based
- recorded_conditions: FLIPR α7 activity rating (EC50, nM), Table 1; HEK 293 cells, agonist Ca2+ flux
- Protocol: I) α7 Nicotinic Acetycholine Receptor Binding. Membranes were prepared for binding using HEK293 cells stably expressing the rat α7 nicotinic acetycholine receptor (rat α7 nAChR). […] II) A Ca^2+-Sensitive, Fluorescence-Based Assay α-7 for Nicotinic Acetylcholine Receptor Channel Function In Mammalian Cells (“FLIPR”). Summary: Lead compounds are evaluated for agonist activity at […], α3β4, […], and α1β1δ1ε sub-types of nicotinic ACh receptor ion channels expressed in mammalian HEK 293 cells. […]
observed_property: EC50

Lookup: Give the measured EC50 of c1ccc(-c2nc(NC3=NC[C@@]4(CN5CCC4CC5)O3)ncc2-n2cncn2)cc1 .
Found: 1000 to 100000 nM

Lookup: Give the measured EC50 of CSc1cnc2nc(NC3=NC[C@@]4(CN5CCC4CC5)O3)sc2n1 .
Found: 100 to 1000 nM

Lookup: Give the measured EC50 of Clc1ccc2c(NC3=NC[C@@]4(CN5CCC4CC5)O3)n[nH]c2c1 .
Found: < 100 nM

Lookup: Give the measured EC50 of Brc1ccc(NC2=NC[C@@]3(CN4CCC3CC4)O2)nn1 .
Found: 100 to 1000 nM

Lookup: Give the measured EC50 of c1ccc2c(NC3=NC[C@@]4(CN5CCC4CC5)O3)nccc2c1 .
Found: 100 to 1000 nM

Lookup: Give the measured EC50 of Brc1ccc2cnc(NC3=NC[C@@]4(CN5CCC4CC5)O3)cc2c1 .
Found: < 100 nM

Lookup: Give the measured EC50 of Cc1nc(NC2=NC[C@@]3(CN4CCC3CC4)O2)ccc1C#N .
Found: 100 to 1000 nM

Lookup: Give the measured EC50 of Cc1nc(NC2=NC[C@@]3(CN4CCC3CC4)O2)nc(C)c1Br .
Found: < 100 nM

Lookup: Give the measured EC50 of c1ccc2cc(-c3cc(NC4=NC[C@@]5(CN6CCC5CC6)O4)ncn3)ccc2c1 .
Found: 100 to 1000 nM

Lookup: Give the measured EC50 of Cc1ccc2nc(NC3=NCC4(CN5CCC4CC5)O3)sc2c1 (single isomer, unassigned) [Example 12a] .
Found: 100 to 1000 nM

Lookup: Give the measured EC50 of FC(F)(F)Oc1ccc2nc(NC3=NCC4(CN5CCC4CC5)O3)sc2c1 (stereo not drawn) .
Found: 1000 to 100000 nM

Lookup: Give the measured EC50 of COc1ccc2ncc(NC3=NC[C@@]4(CN5CCC4CC5)O3)nc2c1 .
Found: 1000 to 100000 nM

Lookup: Give the measured EC50 of c1cn2nc(NC3=NC[C@@]4(CN5CCC4CC5)O3)nc2cn1 .
Found: < 100 nM

Lookup: Give the measured EC50 of O=C1Cc2cc(NC3=NCC4(CN5CCC4CC5)O3)ccc2N1 (stereo not drawn) .
Found: 1000 to 100000 nM

Lookup: Give the measured EC50 of c1ccc2c(NC3=NC[C@@]4(CN5CCC4CC5)O3)ncnc2c1 .
Found: 100 to 1000 nM

Lookup: Give the measured EC50 of Brc1cnc2nc(NC3=NC[C@@]4(CN5CCC4CC5)O3)sc2n1 .
Found: < 100 nM

Lookup: Give the measured EC50 of FC(F)Oc1cc(NC2=NC[C@@]3(CN4CCC3CC4)O2)ncn1 .
Found: < 100 nM

Lookup: Give the measured EC50 of Cc1ccc2nc(NC3=NC[C@@]4(CN5CCC4CC5)O3)cnc2c1 .
Found: 100 to 1000 nM

All values here come from patent US8309577B2.
